protocol: yeast display, Sf9 membrane polyspecificity reagent, FACS + sequencing; frameworks hold sequencing errors
measurement-kind: polyreactivity (PSR sort gate)

In the examples that follow, each entry is paired with its recorded polyreactivity (PSR sort gate).
QVQLVESGGGLVQAGGSLRLSCAASGLIFKYNVMGWYRQAPGKERELVAAITKRGGSTYYADSVKGRFTISRDNEKNTVYLQMNSLKPEDTAVYYCAARPVNTVRPFDYWGQGTQVTVSS | high polyreactivity
QVQLVESGGGLVQAGGSLSLSCAASGRIFGHNAMGWYRQAPGKERELVATISSGVRTNYADSVKGRFTISRDNAKNTVYLQMNSLKPEDTAVYYCATKTYQFGYSSYYYWGQGTQVTVSS | high polyreactivity
QVQLVESGGGLVQAGGILRLSCAASGRTFGRNAMGWYRQAPGKERELVARITSGGSTSYADSVKGRFTISRDNAKNTVYLQMNSLKPEDTAVYYCAKGSYGVAYFTHTARYYGGYEYWGQGTQVTVSS | high polyreactivity
QVQHVESGGGLVQAGGSLRLSCASSGRIIGKYVMAWYRQAPGKERELVAGISWSAGSTYYADSVKGRFTISRDNAKNTVYLQMNSLKPEDTAVYYCAAGLEGVYDYWGQGTQVTVSS | low polyreactivity
QVQLVESGGGLVQAGGSLRLSCAASGSIFHPYTMGWYRQAPGKERELVAAISWSGGNTNYADSVKGRFTISRDNAKNTVYLQMNSLKPEDTAVYYCNKATNLSGGYDSWGQGTQVTVSS | low polyreactivity

State the recorded polyreactivity (PSR sort gate) for this entry: QVQLVESGGGLVQAGGSLRLSCPASASNYAAYTMAWYRQAPGKERECVAAITSGGSTNYADSVKGRFTISRDNAKNTVYLQMNSLKPEDTAVYYCAAEDLNYYFWRSLWFGIYDDWGQGTQVTVSS
low polyreactivity

State the recorded polyreactivity (PSR sort gate) for this entry: QVQLVESGGGLVQAGGSLRLSCAASGSTFVGYAMGWYRQAPGKERELVASITRRGGSTYYADSVKGRFTISRDNAKNTVYLQMNSLKPEDTAVYYCATPLYKTATWRAYEYWGQGTQVTVSS
high polyreactivity

---

protocol: yeast display, Sf9 membrane polyspecificity reagent, FACS + sequencing; frameworks hold sequencing errors
measurement-kind: polyreactivity (PSR sort gate)

In the examples that follow, each entry is paired with its recorded polyreactivity (PSR sort gate).
QDQLVESGGGLVQAGGSLRLSCAASGSTFYRYAMGRSRQAPGTERELVAAISWRGGSTYYADSVKGRFTISRDNAKNSVYLQMNSLKPEDTAVYYCNADWYPYDQMYYWGQGTQVTVSS | low polyreactivity
QVQLVESGGGLVQEGGSLRLSCADSGSTFHYYTMGWYRQAPGKERELVAAISWRGTSTYYADSVKGRFTISRDNAKNTVYLQMNSLKPEDTAVYYCAVRSSPGAGYYYWGQGTQVTVSS | high polyreactivity
QVQLVDSGGGLVQAGGSLRLSCAASGSIFVFYDMGWYSQAPGKEREMVATISSGGGGTYYTDSVKGRFTISRDNAKNTVYLQMNSLKPEDTAVYYCAAEGDKYGKGYGYWGQGTQVTVSS | low polyreactivity
QGQLVESGGGIVQAGVSLRLSCAASGSIFTANAMGWYRQAPGKVRELVAAISRSGGRTYYADSVKGRFTISRDNAKNTVYLQMNSLNPEDTAVYYCNVGSFNTSGYDYWGQGTQVTVSS | high polyreactivity

State the recorded polyreactivity (PSR sort gate) for this entry: QVQLVESGGGLVQAGGSLRLSCAASGSTFTWYAMGWYRQAPGKERELVADISYGGGSTYYADSVKGRFTISRDNAKNTVYLQMNSLKPEDTAVYYCAVDDGFAYSYDWTYRYAEYYYWGQGTQVTVSS
low polyreactivity

Origin of values: the nanobody polyreactivity screen of Harvey et al. (2022)
